Experiment: Cmax in mouse at 30 mg/kg, po
Format: ADME, organism-based
Design: dose 30 mg/kg, route oral
Conditions: in vivo
Quantity Kind: Cmax
# include the unit after the value

Q: // returns reported Cmax for input O=S(=O)(Nc1nccs1)c1cc(Cl)c(NC[C@H]2CCCOC2)cc1F
Result: 37 µM

###

Experiment: Plasma concentration in mouse model of nociceptive flexion reflex 30 mg/kg, ip measured after 60 mins post dose
Assay type: ADME, organism-based
Quantity Kind: concentration at 1 h (µM)
# output: bare number, implied unit µM

Q: Please look up its concentration at 1 h: O=S(=O)(Nc1nccs1)c1cc(Cl)c(NC[C@H]2CCCOC2)cc1F
Result: 82
